# Tested on: L1210
# assay-notes: The compound was evaluated for antiproliferative activity against L1210 cell line
# Assay type: functional
# assay-context: Mus musculus, read-out: ED50 (the source's name)

{"structure-notation": "CCCCCCCCCO/N=C/c1cc(OC)c2c(c1OC)C(=O)C=CC2=O", "EC50, µg/mL": 0.19}
{"structure-notation": "CCCCCO/N=C/c1cc(OC)c2c(c1OC)C(=O)C=CC2=O", "EC50, µg/mL": 0.175}
{"structure-notation": "CCCO/N=C/c1cc(OC)c2c(c1OC)C(=O)C=CC2=O", "EC50, µg/mL": 0.107}
{"structure-notation": "COc1cccc2c1C(=O)c1c(O)c3c(c(O)c1C2=O)C[C@@](O)(C(=O)CO)C[C@@H]3O[C@H]1C[C@H](N)[C@H](O)[C@H](C)O1", "EC50, µg/mL": 0.016}
{"structure-notation": "CCCCCCCO/N=C(\\CCCCCC)c1cc(OC)c2c(c1OC)C(=O)C=CC2=O", "EC50, µg/mL": 0.162}
